Target: His6-JNK2 (Homo sapiens)
Construct: His6 (N)
Sequence (P45984 whole entry): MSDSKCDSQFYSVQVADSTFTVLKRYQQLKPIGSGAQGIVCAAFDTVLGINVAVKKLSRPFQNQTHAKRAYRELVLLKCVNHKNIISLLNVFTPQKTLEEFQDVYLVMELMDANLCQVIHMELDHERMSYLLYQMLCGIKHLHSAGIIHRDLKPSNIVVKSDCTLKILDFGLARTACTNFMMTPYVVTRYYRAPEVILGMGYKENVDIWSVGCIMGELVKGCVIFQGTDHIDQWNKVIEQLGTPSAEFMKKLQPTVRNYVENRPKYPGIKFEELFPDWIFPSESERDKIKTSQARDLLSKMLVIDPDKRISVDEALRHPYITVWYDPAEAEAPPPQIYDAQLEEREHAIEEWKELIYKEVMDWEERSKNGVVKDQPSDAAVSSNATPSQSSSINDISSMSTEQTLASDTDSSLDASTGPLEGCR
Assay: JNK2 Assay (c-Jun phosphorylation, 32P-ATP filter plate)
Format: biochemical
Details: c-Jun phosphorylation reduced to 50% of control; GST-c-Jun(1-79), 11 μM ATP; read-out: IC50 value in the JNK2 Assay
Where a name gives a salt, the structure may show the parent alone.

[
  {
    "compound": "NC(=O)c1ccc(Nc2nccc(-c3ccc(N4CCCCC4)cc3)n2)cc1",
    "IC50": "≤ 10 µM"
  },
  {
    "compound": "CN(CCc1ccccn1)C(=O)c1ccc(Nc2nccc(-c3ccc(Cl)cc3)n2)cc1",
    "IC50": "≤ 10 µM"
  },
  {
    "compound": "CC(=O)N1CCN(C(=O)c2ccc(Nc3nccc(-c4ccc(S(=O)(=O)c5ccncc5)cc4)n3)cc2)CC1",
    "IC50": "≤ 1 µM"
  },
  {
    "compound": "COCC(=O)NC1CCN(C(=O)c2ccc(Nc3nccc(-c4ccc(Cl)cc4)n3)cc2)CC1",
    "IC50": "≤ 10 µM"
  },
  {
    "compound": "CN(C)CCCSc1ccc(-c2ccnc(Nc3ccc(C(N)=O)cc3)n2)cc1",
    "IC50": "≤ 10 µM"
  },
  {
    "compound": "O=CN1CCN(C(=O)c2ccc(Nc3nccc(-c4ccc(Cl)cc4)n3)cc2)CC1",
    "IC50": "≤ 10 µM"
  },
  {
    "compound": "O=C(c1ccc(Nc2nccc(-c3ccc(Cl)cc3)n2)cc1)N1CCC[C@@H]1CO",
    "IC50": "≤ 10 µM"
  },
  {
    "compound": "C[C@@H]1CN(C(=O)c2ccc(Nc3nccc(-c4ccc(Cl)cc4)n3)cc2)C[C@H](C)N1",
    "IC50": "≤ 1 µM"
  },
  {
    "compound": "CN1CCN(S(=O)(=O)c2ccc(-c3ccnc(Nc4ccc(C(N)=O)cc4)n3)cc2)CC1",
    "IC50": "≤ 10 µM"
  },
  {
    "compound": "O=C(Nc1ccc2[nH]ncc2c1)c1ccc(Nc2nccc(-c3ccc(Cl)cc3)n2)cc1",
    "IC50": "≤ 10 µM"
  },
  {
    "compound": "CN(C)c1ccc(-c2ccnc(Nc3ccc(C(N)=O)cc3)n2)cn1",
    "IC50": "≤ 1 µM"
  },
  {
    "compound": "CN(C)CCNC1CCN(C(=O)c2ccc(Nc3nccc(-c4ccc(Cl)cc4)n3)cc2)CC1",
    "IC50": "≤ 1 µM"
  },
  {
    "compound": "O=C(NC1CCN(C(=O)c2ccc(Nc3nccc(-c4ccc(Cl)cc4)n3)cc2)CC1)c1cccs1",
    "IC50": "≤ 1 µM"
  },
  {
    "compound": "CN(C)C(=O)NC1CCN(C(=O)c2ccc(Nc3nccc(-c4ccc(Cl)cc4)n3)cc2)CC1",
    "IC50": "≤ 10 µM"
  },
  {
    "compound": "CCN(C(C)=O)C1CCN(C(=O)c2ccc(Nc3nccc(-c4ccc(Cl)cc4)n3)cc2)C1 (stereo not shown)",
    "IC50": "≤ 10 µM"
  },
  {
    "compound": "O=C(c1ccc(Nc2nccc(-c3ccc(Cl)cc3)n2)cc1)N1CCC(N2CCCCC2)CC1",
    "IC50": "≤ 1 µM"
  },
  {
    "compound": "O=C(c1ccc(Nc2nccc(-c3ccc(SCCCO)cc3)n2)cc1)N1CCN(C(=O)c2ccco2)CC1",
    "IC50": "≤ 1 µM"
  },
  {
    "compound": "O=C(c1ccc(Nc2nccc(-c3ccc(Cl)cc3)n2)cc1)N1CCOCC1",
    "IC50": "≤ 10 µM"
  },
  {
    "compound": "O=C(NCCCN1CCCC1=O)c1ccc(Nc2nccc(-c3ccc(Cl)cc3)n2)cc1",
    "IC50": "≤ 10 µM"
  },
  {
    "compound": "O=C(c1ccc(Nc2nccc(-c3ccc(Cl)cc3)n2)cc1)N1CCN(c2ccc(F)cc2)CC1",
    "IC50": "≤ 10 µM"
  },
  {
    "compound": "O=C(Nc1nc2ccccc2[nH]1)c1ccc(Nc2nccc(-c3ccc(Cl)cc3)n2)cc1",
    "IC50": "≤ 10 µM"
  },
  {
    "compound": "O=C(NCCCn1ccnc1)c1ccc(Nc2nccc(-c3ccc(Cl)cc3)n2)cc1",
    "IC50": "≤ 1 µM"
  },
  {
    "compound": "CN1CCC(S(=O)(=O)c2ccc(-c3ccnc(Nc4ccc(C(N)=O)cc4)n3)cc2)CC1",
    "IC50": "≤ 10 µM"
  },
  {
    "compound": "O=C(c1ccc(Nc2nccc(-c3ccc(Cl)cc3)n2)cc1)N1CCNCC1 [Compound 18, hydrochloride]",
    "IC50": "≤ 1 µM"
  },
  {
    "compound": "O=C(c1ccc(Nc2nccc(-c3ccc(Cl)cc3)n2)cc1)N1CCC(O)CC1",
    "IC50": "≤ 1 µM"
  },
  {
    "compound": "NC(=O)c1ccc(Nc2nccc(-c3ccc(SCCCN4CCOCC4)cc3)n2)cc1",
    "IC50": "≤ 10 µM"
  },
  {
    "compound": "NC(=O)c1ccc(Nc2nccc(-c3ccc([N+](=O)[O-])cc3)n2)cc1",
    "IC50": "≤ 10 µM"
  },
  {
    "compound": "O=C(c1ccc(Nc2nccc(-c3ccc(Cl)cc3)n2)cc1)N1CCN(c2ccc([N+](=O)[O-])cc2)CC1",
    "IC50": "≤ 10 µM"
  },
  {
    "compound": "CN(C)CCCNC(=O)c1ccc(Nc2nccc(-c3ccc(Cl)cc3)n2)cc1",
    "IC50": "≤ 1 µM"
  },
  {
    "compound": "NC(=O)c1ccc(Nc2nccc(-c3ccc(C(=O)O)cc3)n2)cc1",
    "IC50": "≤ 1 µM"
  },
  {
    "compound": "CCN(Cc1ccncc1)C(=O)c1ccc(Nc2nccc(-c3ccc(Cl)cc3)n2)cc1",
    "IC50": "≤ 1 µM"
  }
]
